src = ChEMBL document CHEMBL1156616

- System: P388
- Assay Details: Cytotoxicity against mouse CPT45-resistant topoisomerase 1-deficient P388 cells after 4 days by MTT assay
- Assay type: functional, cell-based
- Particulars: P388, 96 h
pIC50: −log10 of the molar value.
The threshold is inclusive: pIC50 of exactly 6 counts as satisfied; values below receive not satisfied.

Compound	Group Label
CNCCn1c(=O)c2cc(OC)c(OC)cc2c2nnc3cc4c(cc3c21)OCO4	satisfied
COc1cc2c(=O)n(CCNC(C)C)c3c4cc5c(cc4nnc3c2cc1OC)OCO5	satisfied
COc1cc2c(=O)n(CCN(Cc3ccccc3)C(C)C)c3c4cc5c(cc4nnc3c2cc1OC)OCO5	not satisfied
COc1cc2c(=O)n(CCn3ccnc3)c3c4cc5c(cc4nnc3c2cc1OC)OCO5	not satisfied
COc1cc2c(=O)n(CCN(C)C)c3c4cc5c(cc4nnc3c2cc1OC)OCO5	satisfied

Input line: Does the reported pIC50 for COc1cc2c(=O)n(CCNC(CO)(CO)CO)c3c4cc5c(cc4nnc3c2cc1OC)OCO5 fall at or above the 6 mark?
Output line: not satisfied

Input line: Does the reported pIC50 for COc1cc2c(=O)n(CCN(C)CCN(C)C)c3c4cc5c(cc4nnc3c2cc1OC)OCO5 fall at or above the 6 mark?
Output line: satisfied

Input line: Does the reported pIC50 for COc1cc2c(=O)n(CCN(C)Cc3ccccc3)c3c4cc5c(cc4nnc3c2cc1OC)OCO5 fall at or above the 6 mark?
Output line: not satisfied

Input line: Does the reported pIC50 for CC[C@@]1(O)C(=O)OCc2c1cc1n(c2=O)Cc2cc3ccccc3nc2-1 [CAMPTOTHECIN] fall at or above the 6 mark?
Output line: not satisfied
